Reference source: paper PMC12126525

# species per record follows
# target.entity: BiP NBD (Homo sapiens)
# Sequence (P11021 19-406): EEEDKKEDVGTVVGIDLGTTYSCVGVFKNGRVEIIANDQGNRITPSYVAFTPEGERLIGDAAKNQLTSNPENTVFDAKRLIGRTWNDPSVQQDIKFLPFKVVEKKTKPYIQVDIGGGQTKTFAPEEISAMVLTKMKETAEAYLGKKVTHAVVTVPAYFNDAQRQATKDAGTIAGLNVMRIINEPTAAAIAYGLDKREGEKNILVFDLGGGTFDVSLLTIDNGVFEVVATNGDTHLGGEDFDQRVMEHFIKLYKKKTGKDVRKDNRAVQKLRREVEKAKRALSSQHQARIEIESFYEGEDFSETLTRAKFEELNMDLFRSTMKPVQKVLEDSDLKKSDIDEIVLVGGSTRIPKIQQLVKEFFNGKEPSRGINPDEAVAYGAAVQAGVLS
# assay.protocol: Global kinetic fit (MCMC) of four NMR data sets (E1+E2, E1 only, E2 only, no recycling): functional cycle kinetic parameters
# Assay type: biochemical
# Set-up: His6 (N, cleaved yes); made in house; host or cells: E. coli BL21-(DE3)-Lemo, pET28a vector
# condition.description: Supplementary Fig 10b, time 46 min
# From the text: It comprises 5 different states that are connected by […] reaction equations of first and second order. We consider ATP hydrolysis an irreversible reaction without backreaction. The other pathways are reversible dissociation/association reactions, arbitrarily labeled 1–5. […] The experimental data of the BiP NBD in-cyclo experiments were fitted using standard reaction kinetics. […] The initial values for kcat , koff2 , koff4 and koff5 were set to the value determined experimentally with in-cyclo experiment. […]
Numbers only; they are read as µM.

// below: answered molecules
>>> test_result("O=P(O)(O)O [Pi]")
4207
>>> test_result("Nc1ncnc2c1ncn2[C@@H]1O[C@H](COP(=O)(O)OP(=O)(O)OP(=O)(O)O)[C@@H](O)[C@H]1O [ATP]")
4996
>>> test_result("CC(=O)C(=O)O [Pyruvate]")
4207

// query species value for entry C=C(OP(=O)(O)O)C(=O)O [PEP]
5793
